Data origin, for the record: patent US5482967A

# TEST_TARGET: acyl-CoA:cholesterol acyl transferase (ACAT) (Rattus norvegicus)
# Construct: small intestine mucosal microsome fraction of a 6-week-old male Sprague-Dawley rat; from tissue; host or cells: rat small intestine mucosa, microsome fraction
# Sequence (Q7TQM4 1-524): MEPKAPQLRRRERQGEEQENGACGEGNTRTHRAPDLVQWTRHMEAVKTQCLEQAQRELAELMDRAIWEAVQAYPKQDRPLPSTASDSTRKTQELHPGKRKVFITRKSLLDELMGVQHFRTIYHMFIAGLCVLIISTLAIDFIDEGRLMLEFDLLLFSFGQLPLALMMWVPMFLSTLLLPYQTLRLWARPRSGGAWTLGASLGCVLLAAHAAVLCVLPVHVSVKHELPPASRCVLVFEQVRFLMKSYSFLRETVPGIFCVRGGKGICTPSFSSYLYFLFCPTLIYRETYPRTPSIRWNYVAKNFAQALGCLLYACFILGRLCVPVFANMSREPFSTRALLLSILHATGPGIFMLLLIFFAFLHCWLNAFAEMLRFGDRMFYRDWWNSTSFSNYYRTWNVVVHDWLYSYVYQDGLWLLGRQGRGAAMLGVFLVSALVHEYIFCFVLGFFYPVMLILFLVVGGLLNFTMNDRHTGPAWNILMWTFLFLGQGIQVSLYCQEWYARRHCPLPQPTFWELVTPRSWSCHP
# TEST_DESCRIPTION: Inhibitory action against acyl-CoA:cholesterol acyl transferase (ACAT), formation of labeled cholesterol ester, small intestine mucosal microsome fraction
# Format: biochemical, male Sprague-Dawley rat
# SETUP_CONDITIONS: 10^-6 M; read-out: ACAT Inhibitory Rate (%)
ENDPOINT_LABEL: inhibition at 1 µM (%)

CC(C)c1cccc(C(C)C)c1NC(=O)Cc1cnc2ccc(Cl)cc2c1-c1ccccc1 [Example 57]
99.3
CC(C)c1cccc(C(C)C)c1NC(=O)Cc1c(-c2ccccc2)c2cc(Cl)ccc2n(C)c1=O [Example 45]
99.5
COc1cc(OC)c(NC(=O)Cc2c(-c3ccccc3)c3cc(Cl)ccc3oc2=O)c(OC)c1 [Example 51]
98.1
CC(C)c1cccc(C(C)C)c1NC(=O)Cc1c(-c2ccccc2)c2cc(Cl)ccc2oc1=O [Example 50]
95.7
CC(C)c1cccc(C(C)C)c1NC(=O)C[C@H]1CN(C)c2ccc(Cl)cc2[C@H]1c1ccccc1 (relative stereo) [Example 36]
98.8
Cc1ccccc1-c1c(CC(=O)Nc2ccc(F)cc2F)c(=O)oc2ccc(Cl)cc12 [Example 83]
99.4
COc1cc(OC)c(NC(=O)CC2C(=O)N(C)c3ccc(Cl)cc3N2c2ccccc2)c(OC)c1 (centres unmarked) [Example 43]
98.2
Cc1ccc2oc(=O)c(CC(=O)Nc3c(C(C)C)cccc3C(C)C)c(-c3ccccc3)c2c1 [Example 53]
99.7
